# Tested on: Monochoria vaginalis
# assay info: Paddy herbicidal activity test
# Type: in vivo
# details: 1g a.i./10a; irrigated paddy pot, 30 days
parameter measured: Monochoria vaginalis herbicidal efficacy (growth inhibition level)

Please review the entries below; each comes with its answer.
- compound: "C=CCN(C(=O)C(F)(F)F)c1c([N+](=O)[O-])cnn1-c1nn2c(c1Cl)CCCC2 [Compound 36]"
  measured result: "8 (8: 80% to less than 90%)"
- compound: "C=C(C)CN(C(=O)C(F)(F)F)c1c(C#N)cnn1-c1nn2c(c1Cl)CCCC2 [Compound 19]"
  measured result: "9 (9: 90% to less than 100%)"
- compound: "N#Cc1cnn(-c2nn3c(c2Cl)CCCC3)c1N(CCC(F)=C(F)F)C(=O)C(F)(F)F [Compound 20]"
  measured result: "8 (8: 80% to less than 90%)"

For each entry beneath this line, provide reported Monochoria vaginalis herbicidal efficacy (growth inhibition level).
1. CC=CCN(C(=O)C(F)(F)F)c1c(C#N)cnn1-c1nn2c(c1Cl)CCCC2 (mixture of isomers) [Compound 24]
2. CC=CCNc1c(C#N)cnn1-c1nn2c(c1Cl)CCCC2 (mixture of isomers) [Compound 12]
3. C=CCCNc1c(C#N)cnn1-c1nn2c(c1Cl)CCCC2 [Compound 5]

Response:
["8 (8: 80% to less than 90%)", "9 (9: 90% to less than 100%)", "9 (9: 90% to less than 100%)"]

For each entry beneath this line, provide reported Monochoria vaginalis herbicidal efficacy (growth inhibition level).
1. C=C(C)CNc1c(C#N)cnn1-c1nn2c(c1Cl)CCCC2 [Compound 1]
2. N#Cc1cnn(-c2nn3c(c2Cl)CCCC3)c1N(C/C=C\Cl)C(=O)C(F)(F)F [Compound 21]
3. N#Cc1cnn(-c2nn3c(c2Cl)CCCC3)c1NC/C=C\Cl [Compound 7]
4. CC(C)=CCNc1c([N+](=O)[O-])cnn1-c1nn2c(c1Cl)CCCC2 [Compound 35]
5. N#Cc1cnn(-c2nn3c(c2Br)CCCC3)c1NC/C=C\Cl [Compound 45]
6. O=[N+]([O-])c1cnn(-c2nn3c(c2Cl)CCCC3)c1NC/C=C\Cl [Compound 32]
7. C=C(Cl)CNc1c(C#N)cnn1-c1nn2c(c1Cl)CCCC2 [Compound 2]

Response:
["9 (9: 90% to less than 100%)", "9 (9: 90% to less than 100%)", "9 (9: 90% to less than 100%)", "9 (9: 90% to less than 100%)", "9 (9: 90% to less than 100%)", "9 (9: 90% to less than 100%)", "9 (9: 90% to less than 100%)"]
